These measurements were taken from paper PMC6395809.

Target: GST_SH3_p130Cas recombinant protein (SH3 domain of p130Cas) (Homo sapiens, UniProt P56945)
Construct: fragment of p130Cas protein (aminoacids 3–71); made in house; host or cells: Escherichia coli BL21
Sequence (P56945 3-71): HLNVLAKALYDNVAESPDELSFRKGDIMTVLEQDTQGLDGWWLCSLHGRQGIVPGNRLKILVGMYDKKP
Assay: Fluorescence quenching of Fl-GST_SH3_p130Cas by compounds
Type: binding
Conditions: fluorescence quenching of Fl-GST_SH3_p130Cas, emission at 518 nm, nonlinear least-squares fit; read-out: KD (equilibrium dissociation constant)
quantity.name: Kd (µM)
Write the number in µM without appending the unit.

-- ask Recorded Kd of NS(=O)(=O)N[C@H]1CCCc2ccccc21 , please.
-- reply 5

* * *

Tested on: BT474 breast cancer cells
Experiment: Cell proliferation assay (MTT), BT474
Assay type: cell-based
Conditions: Homo sapiens, BT-474, 72 h, BT474, 3 days
In this section, each of the molecules is paired with its reported pEC50.
For clarity, pEC50 is expressed as the negative log10 of concentration in mol/L.

O=C(CNC(=O)NC1CC1)Nc1nnc(C23CC4CC(CC(C4)C2)C3)s1; 4.28

// below: pEC50 requested for another molecule
-- ask Item NS(=O)(=O)N[C@H]1CCCc2ccccc21 with BT474 breast cancer cells - pEC50?
-- reply 3.62
